ASSAY_TARGET: GDP-KRAS G12D mutant protein (Homo sapiens, UniProt P01116, G12D)
Construct: purchased Daegu Gyeongbuk Medical Innovation Foundation (DGMIF), made to order
TEST_PROTOCOL: Differential scanning fluorimetry (DSF) binding affinity to GDP-KRAS G12D mutant protein
STUDY_CONDITIONS: DSF thermal shift, 10 μM compound, 4 μg KRAS protein
Quick rule: GDP-KRAS G12D (ΔTmD, ° C.) of at least 10 °C means Satisfied, below that means Not satisfied.

Below are worked cases with known answers.
{"columns": ["COMPOUND", "ASSIGNED_CLASS"],
 "data": [
  ["C#Cc1c(F)ccc2cc(O)cc(-c3c(F)c4nc(OCC5(CN6CC[C@@H](F)C6)CCC5)nc(N5C[C@H]6CC[C@@H](C5)N6)c4c4cn(C)nc34)c12 [Example 98]", "Satisfied"],
  ["C#Cc1c(F)ccc2cc(O)cc(-c3cc4nc(OCC5(CN6CCC7(CC6)CC7(F)F)CC5)nc(N5C[C@H]6CC[C@@H](C5)N6)c4c4cn(C)nc34)c12 [Example 73]", "Satisfied"],
  ["C#Cc1c(F)ccc2cc(O)cc(-c3c(F)c4nc(OC[C@@]56CCCN5C/C(=C\\F)C6)nc(N5C[C@H]6CC[C@@H](C5)N6)c4c4cc(C)oc34)c12 [Example 64]", "Satisfied"],
  ["C#Cc1c(F)ccc2cccc(-c3c(F)c4nc(OC[C@@]56CCCN5C[C@H](F)C6)nc(N5C[C@H]6CC[C@@H](C5)N6)c4c4cn(C)nc34)c12 [Example 82]", "Not satisfied"]
]}

Check this compound for GDP-KRAS G12D (ΔTmD, ° C.) at or above 10 °C: C#Cc1c(F)ccc2cc(N)cc(-c3cc4nc(OC[C@@]56CCCN5C/C(=C\F)C6)nc(N5C[C@H]6CC[C@@H](C5)N6)c4c4cn(C)nc34)c12 [Example 74]
Not satisfied

---

Tested on: KRAS G12D mutant pancreatic cancer cell line AsPC-1
TEST_PROTOCOL: Cell viability assay using KRAS G12D mutant cells (AsPC-1, 3D culture, celltiter-glo 3D)
Assay type: cell-based
STUDY_CONDITIONS: Homo sapiens, ASPC1, 5th day after compound treatment
Mark each entry fulfilled if its IC50 sits below 100 nM, and not fulfilled for all others.

{"columns": ["COMPOUND", "ASSIGNED_CLASS"],
 "data": [
  ["C#Cc1c(F)ccc2cc(O)cc(-c3cc4nc(OCC5(CN6CCC7(CC6)CC7(F)F)CC5)nc(N5C[C@H]6CC[C@@H](C5)N6)c4n4ccnc34)c12 [Example 9]", "fulfilled"]
]}

With those in mind, consider the next compound.
Take the compound C#Cc1c(F)ccc2cc(O)cc(-c3cc4nc(OC[C@@]56CCCN5C[C@H](F)C6)nc(N5C[C@H]6CC[C@@H](C5)N6)c4n4ccnc34)c12 [Example 2] and say whether its IC50 is less than 100 nM.
not fulfilled

---

Test system: KRAS G12D mutant pancreatic cancer cell line AsPC-1
TEST_PROTOCOL: Cell viability assay using KRAS G12D mutant cells (AsPC-1, 3D culture, celltiter-glo 3D)
Assay type: cell-based
STUDY_CONDITIONS: Homo sapiens, ASPC1, 5th day after compound treatment
A collection of compounds and their measured log10 of IC50
Please keep in mind that the values are log10 of IC50 expressed in nM.

Worked examples, 5 compounds total:
{"columns": ["COMPOUND", "log10 of IC50"],
 "data": [
  ["C#Cc1c(F)ccc2cc(N)cc(-c3c(F)c4nc(OC[C@@]56CCCN5CC(=C(F)F)C6)nc(N5C[C@H]6CC[C@@H](C5)N6)c4c4cn(C)nc34)c12 [Example 99]", 1.43],
  ["C#Cc1c(F)ccc2cc(O)cc(-c3cc4nc(OC[C@@]56CCCN5C[C@H](F)C6)nc(N5C[C@H]6CC[C@@H](C5)N6)c4c4cc(C)oc34)c12 [Example 42]", 2.02],
  ["CCc1c(F)ccc2cc(O)cc(-c3c(F)c4nc(OC[C@@]56CCCN5C/C(=C\\F)C6)nc(N5C[C@H]6CC[C@@H](C5)N6)c4c4cn(C)nc34)c12 [Example 85]", 1.04],
  ["C#Cc1c(F)ccc2cc(O)cc(-c3cc4nc(OCC5(CN6CCO[C@H](C)C6)CC5)nc(N5C[C@H]6CC[C@@H](C5)N6)c4n4ccnc34)c12 [Example 11]", 2.15],
  ["C#Cc1c(F)ccc2cc(O)cc(-c3cc4nc(OC[C@@]56CCCN5C/C(=C\\F)C6)nc(N5[C@@H]6CC[C@H]5CNC6)c4n4ccnc34)c12 [Example 23]", 1.38]
]}

Endpoint output: log10 of IC50 of C#Cc1c(F)ccc2cc(O)cc(-c3c(F)c4nc(OC[C@@]56CCCN5C[C@H](F)C6)nc(N5CC6CCC(C5)N6)c4c4cc(C)oc34)c12 [Example 44] . Value?
0.85

Endpoint output: log10 of IC50 of CCc1c(F)ccc2cc(O)cc(-c3cc4nc(OC[C@@]56CCCN5C[C@H](F)C6)nc(N5C[C@H]6CC[C@@H](C5)N6)c4n4ccnc34)c12 [Example 1] . Value?
2.56

Data origin, for the record: patent US20260209249A1
